# STUDY TARGET: GCGR extracellular domain (human, UniProt P47871)
# Sequence (P47871 26-477): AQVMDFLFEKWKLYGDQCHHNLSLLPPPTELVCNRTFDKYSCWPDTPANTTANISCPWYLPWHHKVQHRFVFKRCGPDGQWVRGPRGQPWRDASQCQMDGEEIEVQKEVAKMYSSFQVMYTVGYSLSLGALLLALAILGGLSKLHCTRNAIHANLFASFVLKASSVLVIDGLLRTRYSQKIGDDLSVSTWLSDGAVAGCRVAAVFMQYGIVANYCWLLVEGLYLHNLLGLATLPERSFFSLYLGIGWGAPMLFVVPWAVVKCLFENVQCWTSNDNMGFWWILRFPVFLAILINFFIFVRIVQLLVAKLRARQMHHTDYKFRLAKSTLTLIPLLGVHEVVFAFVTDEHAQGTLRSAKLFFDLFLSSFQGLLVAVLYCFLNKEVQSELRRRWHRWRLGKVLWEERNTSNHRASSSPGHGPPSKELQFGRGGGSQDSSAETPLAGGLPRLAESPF
# ASSAY OVERVIEW: SPR

- BINDER: "VL S93E (antibody, V domains shown) VH: EVQLVESGGGLVQPGGSLRLSCAASGFNIYYNYIHWVRQAPGKGLEWVAEFSPYSGSTYYADSVKGRFTISADTSKNTAYLQMNSLRAEDTAVYYCARSAAIVDWYDYFKGFDYWGQGTLVTVSS VL: DIQMTQSPSSLSASVGDRVTITCRASQSVSSAVAWYQQKPGKAPKLLIYSASSLYSGVPSRFSGSRSGTDFTLTISSLQPEDFATYYCQQYGEYLYTFGQGTKVEIK"
  UNIT ABBREVIATION: "nM"
  Kd: 0.968
- BINDER: "VH Y100bK (antibody, V domains shown) VH: EVQLVESGGGLVQPGGSLRLSCAASGFNIYYNYIHWVRQAPGKGLEWVAEFSPYSGSTYYADSVKGRFTISADTSKNTAYLQMNSLRAEDTAVYYCARSAAIVDWKDYFKGFDYWGQGTLVTVSS VL: DIQMTQSPSSLSASVGDRVTITCRASQSVSSAVAWYQQKPGKAPKLLIYSASSLYSGVPSRFSGSRSGTDFTLTISSLQPEDFATYYCQQYGSYLYTFGQGTKVEIK"
  UNIT ABBREVIATION: "nM"
  Kd: 7.75
- BINDER: "VL Y91L (antibody, V domains shown) VH: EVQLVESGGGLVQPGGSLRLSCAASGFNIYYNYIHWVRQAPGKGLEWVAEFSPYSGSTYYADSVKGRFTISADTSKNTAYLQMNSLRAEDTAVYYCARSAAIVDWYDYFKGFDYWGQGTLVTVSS VL: DIQMTQSPSSLSASVGDRVTITCRASQSVSSAVAWYQQKPGKAPKLLIYSASSLYSGVPSRFSGSRSGTDFTLTISSLQPEDFATYYCQQLGSYLYTFGQGTKVEIK"
  UNIT ABBREVIATION: "nM"
  Kd: 4.2
